- System: TK-10
- assay.info: NCI tumour cell line growth inhibition, 48 h
Calls of active or inactive are those of the source. Rule as the data show it: active = GI50 up to about 1.1 µM and inactive = higher.
Catalogue of GI50 values

Some compounds with known GI50 results, for comparison:
CC(=O)CC(=O)Nc1ccccc1C(F)(F)F = > 100 µM (inactive)
COc1ccc(CNc2nc(NCc3ccc(OC)cc3)nc(NC3CCCC3)n2)cc1 = 3.26 µM (inactive)
CSCCCNC(=O)c1csc(-c2csc(C(CNC(=O)OC(C)(C)C)CNC(=O)OC(C)(C)C)n2)n1 = 66.1 µM (inactive)

Consider the record given below.
Exercise: Entry Nc1ccccc1SC(/C=C/NNC1=NN=C(c2ccccc2)C(c2ccccc2)N1)c1ccccc1 (centres undefined) : reported GI50 = ?
Key: 19 µM (inactive)

###

- Test system: UACC-62
- assay.info: NCI tumour cell line growth inhibition, 48 h
Calls of active or inactive are those of the source. Cut-off read from the data, not from the text of the source: active = GI50 up to about 1.1 µM and inactive = higher.
The categories you may choose from are 1 for active, 0 for inactive

COc1ccc(C[C@H](N)C(=O)N2C[C@H](CO)C[C@H](n3cnc4c(N(C)C)ncnc43)C2)cc1 = 0

Exercise: Returns: the outcome recorded for CC(=O)O[C@H]1CC[C@]2(C=O)[C@H]3CC[C@]4(C)[C@@H](C5=CC(=O)OC5)CC[C@]4(O)[C@@H]3CC[C@]2(O)C1 [STROPHANTHIDIN ACETATE] in this assay.
Key: 1

Exercise: Returns: the outcome recorded for "N#Cc1cnn2c1n[n+]([O-])c1ccc(Cl)cc12" in this assay.
Key: 0

Exercise: Returns: the outcome recorded for "COc1ccc2c(c1)nc1n2C(N)=Nc2ccccc2S1" in this assay.
Key: 0

Exercise: Returns: the outcome recorded for N#Cc1nc(CCC(C(=O)O)N2C(=O)c3ccccc3C2=O)oc1N (stereo not given) in this assay.
Key: 0

###

- Tested on: Malme-3M
- assay.info: NCI tumour cell line growth inhibition, 48 h
Activity calls are given as the source filed them. Rule as the data show it: active = GI50 up to about 1.1 µM and inactive = higher.
outcome.measure: GI50

Some molecules with known GI50 results, for comparison:
O=c1[nH]c(Nc2nc3ccccc3[nH]2)nc2c1CCC2 = > 100 µM (inactive)
O=C(OCc1ccccc1)n1cccc1 = > 100 µM (inactive)
CCN=C=NCCCN(C)C = > 100 µM (inactive)
C[C@@H]1C[C@@]2(O[C@@H]2C)C(=O)O[C@@H]2CCN3CC=C(COC(=O)[C@]1(C)O)[C@H]23 = > 100 µM (inactive)
O=C(Nc1ccccc1)OCc1nc2c([nH]1)C(=O)C=CC2=O = 6.4 µM (inactive)

Exercise: Notebook: pull reported GI50 for Malme-3M, entry O=C(c1ccccc1)C(c1ccccc1)C1(O)C(=O)Nc2ccc(Br)cc21 (stereo unspecified)
Key: 76.6 µM (inactive)

###

Catalogue of GI50 values
- System: SK-MEL-2
- assay.info: NCI tumour cell line growth inhibition, 48 h
Active and inactive are the calls of the source. Rule as the data show it: active = GI50 up to about 1.1 µM and inactive = higher.

Cc1nc(O)c2c3c(sc2n1)CCCC3 = > 100 µM (inactive)
COc1ccc2c(c1)CN([C@@H](C)[C@H]1CC[C@H]3[C@@H]4CC[C@H]5C[C@@H](O)CC[C@]5(C)[C@H]4CC[C@]13C)CO2 = 1.96 µM (inactive)

Consider the record given below.
Exercise: Entry "O=C1c2ccccc2S[C@@H](O)[C@@H]2CCCN12" : reported GI50 = ?
Key: > 100 µM (inactive)

###

- Tested on: SK-MEL-2
- assay.info: NCI tumour cell line growth inhibition, 48 h
Activity calls are given as the source filed them. Rule as the data show it: active = GI50 up to about 1.1 µM and inactive = higher.
The categories you may choose from are 1 (yes) for active, 0 (no) for inactive

Look over these answered cases.
CC(C)C1=CC23CCC4C(C)(C(=O)O)CCCC4(C)C2CC1C1C(=O)N(c2ccccc2)C(=O)C13 (stereo not given) = 0 (no)
Cc1cc(S(=O)(=O)O)c(NC(=O)C(=O)C2C=CCS2(=O)=O)cc1Cl (stereo not given) = 0 (no)
CCC(=O)N(c1ccccc1)C(C)CN1CCC(O)(c2ccccc2)CC1 (stereo not given) = 0 (no)
O=c1[nH]c(=O)n(C2CC(O)C(CO)O2)cc1C#Cc1cc(C(F)(F)F)cc(C(F)(F)F)c1 (stereo not given) = 0 (no)
COc1cc2c(cc1OCCCN1CCN(C)CC1)N=C[C@@H]1CCCN1C2=O = 0 (no)

Exercise: Returns: the outcome recorded for COc1cc([C@@H]2c3cc4c(cc3[C@@H](OC3OC5COC(C)OC5C(OC(=O)CN5CCN(C)CC5)C3OC(=O)CN3CCN(C)CC3)C3COC(=O)[C@@H]32)OCO4)cc(OC)c1OC(=O)CN1CCN(C)CC1 (stereo not given in full) in this assay.
Key: 0 (no)

###

Catalogue of GI50 values
- System: SK-OV-3
- assay.info: NCI tumour cell line growth inhibition, 48 h
Calls of active or inactive are those of the source. Rule as the data show it: active = GI50 up to about 1.1 µM and inactive = higher.

[O-][S+]1c2ccccc2SCSc2ccccc21 = > 100 µM (inactive)
[O-][N+]1=[N+]([O-])[C@@H](c2ccccc2)[C@H]1c1ccccc1 = 32.3 µM (inactive)
CCn1cc(C(=O)O)c(=O)c2cc(F)c(N3CCNCC3)nc21 = > 100 µM (inactive)
Cc1n[nH]c(=O)n1C1CC1 = > 100 µM (inactive)
Cc1nc(O)c2c3c(sc2n1)CCCC3 = > 100 µM (inactive)
Cc1ccc(S(=O)(=O)NNCNC(=O)c2ccccc2)cc1 = > 100 µM (inactive)

Exercise: Notebook: pull reported GI50 for SK-OV-3, entry C=C(C)[C@@H]1CC[C@]2(COC(C)=O)CC[C@]3(C)[C@H](CC[C@@H]4[C@@]5(C)CC[C@H](OC(C)=O)C(C)(C)[C@@H]5CC[C@]43C)[C@@H]12 [BETULIN DIACETATE]
Key: > 50 µM (inactive)

Exercise: Notebook: pull reported GI50 for SK-OV-3, entry "O=c1[nH]c(Nc2nc3ccccc3[nH]2)nc2c1CCC2"
Key: 41.8 µM (inactive)

Exercise: Notebook: pull reported GI50 for SK-OV-3, entry CC(=O)OCC1OC(n2c(N)c(C#N)c(-c3ccccc3)c(C#N)c2=S)C(OC(C)=O)C(OC(C)=O)C1OC(C)=O (centres undefined)
Key: 54.2 µM (inactive)

###

Catalogue of GI50 values
- Test system: UO-31
- assay.info: NCI tumour cell line growth inhibition, 48 h
Active and inactive are the calls of the source. Rule as the data show it: active = GI50 up to about 1.1 µM and inactive = higher.

CCCN(CCC)CCc1ccc(OC2=CCN(C)CC2)cc1 = 23.6 µM (inactive)

Exercise: Notebook: pull reported GI50 for UO-31, entry "COC(=O)[C@@H]1CN(C(=O)Cc2ccccc2)C(=O)N1"
Key: > 100 µM (inactive)

Exercise: Notebook: pull reported GI50 for UO-31, entry "O=C(/C=C1/Nc2ccc([N+](=O)[O-])cc2N/C1=C/C(=O)c1ccc(Cl)cc1)c1ccccc1"
Key: > 100 µM (inactive)

###

- Test system: T47D
- assay.info: NCI tumour cell line growth inhibition, 48 h
Active and inactive are the calls of the source. Rule as the data show it: active = GI50 up to about 1.1 µM and inactive = higher.
outcome.measure: GI50

Cc1c(/N=N/c2ccccc2)c(-c2ccccc2)n(C2OC(CO)C(O)C(O)C2O)c(=S)c1C#N (stereo not given) = 0.245 µM (active)
N#Cc1cc(C#N)c(Cl)nc1N = > 10 µM (inactive)
O=C1Nc2cccc(Cl)c2/C1=C\c1c(-c2ccccc2)nc2n1CCS2 = 17.5 µM (inactive)
COc1ccc(/C=C(\C(=O)OCC(C)C)c2ccc(OC)c(OC)c2)cc1OC = > 100 µM (inactive)
CC(C)(C)CC(C)(C)N/C(N)=N/O = > 32.7 µM (inactive)
Fc1ccc(/C=C2\COCC3=C2NC(=S)NC3c2ccc(F)cc2)cc1 (stereo not given) = 26.1 µM (inactive)
O=c1[nH]c(=O)c2c3n(cc2[nH]1)CCCCC3 = > 100 µM (inactive)
COc1cc([C@@H]2c3cc4c(cc3[C@@H](OC3OC5COC(C)OC5C(OC(=O)CN5CCN(C)CC5)C3OC(=O)CN3CCN(C)CC3)C3COC(=O)[C@@H]32)OCO4)cc(OC)c1OC(=O)CN1CCN(C)CC1 (stereo not given in full) = 71.1 µM (inactive)

Exercise: Entry "CC(C)(C)[Si](C)(C)OC[C@H](/C=C\CCCC(=O)O)NC1(c2ccccc2)c2ccccc2-c2ccccc21" : reported GI50 = ?
Key: 7.38 µM (inactive)

Exercise: Entry Cc1ccc(S(=O)(=O)OC2CN3CCC2CC3)cc1 (stereo not given) : reported GI50 = ?
Key: > 100 µM (inactive)

###

- System: KM12
- assay.info: NCI tumour cell line growth inhibition, 48 h
Active and inactive are the calls of the source. Cut-off read from the data, not from the text of the source: active = GI50 up to about 1.1 µM and inactive = higher. Where a SMILES comes first, the peptide text is derived from it. The star is where a group is joined. Cbz = O=C(OCc1ccccc1)*
The categories you may choose from are active, inactive

Cc1c(C(=O)C/C(=N/NC(=O)C[N+](C)(C)C)C(=O)Nc2ccc(Cl)cc2)[n+]([O-])c2ccccc2[n+]1[O-] = inactive
O=C(Nc1nnc(-c2ccccc2)o1)C(SC(=S)N1CCOCC1)c1ccccc1 (centres undefined) = inactive
C=CC(O)(CBr)CCC(Br)C(C)(C)Cl (centres undefined) = inactive

Exercise: Returns: the outcome recorded for "Cn1c(=O)c2c(n(C)c1=O)n1c(=O)c3ccccc3nc1n2C" in this assay.
Key: inactive

Exercise: Returns: the outcome recorded for CCOC(=O)CCC(NC(=O)C(Cc1ccccc1)NC(=O)OCc1ccccc1)C(=O)OCC (stereo not drawn) (Cbz-Phe-Glu(OEt)-OEt; configuration not given here) in this assay.
Key: inactive

Exercise: Returns: the outcome recorded for "OCCN(CCO)c1ccc2c(-c3ccccc3)cc(N(CCO)CCO)nc2n1" in this assay.
Key: inactive

Exercise: Returns: the outcome recorded for "O=c1cc(-c2ccccc2)[nH]c2ccc(N3CCCCC3)cc12" in this assay.
Key: active

Exercise: Returns: the outcome recorded for CC(C)(C)OC(=O)NC1CCCCC1NC(=O)C(=O)NC1CCCCC1NC(=O)OC(C)(C)C (centres undefined) in this assay.
Key: inactive

Exercise: Returns: the outcome recorded for NCCC(=O)N[C@@H](Cc1cc(O)c(O)c(SCC(NC(=O)CC[C@H](N)C(=O)O)C(=O)NCC(=O)O)c1)C(=O)O (some centres undefined) in this assay.
Key: inactive

The reported numbers originate from ChEMBL document CHEMBL1201862.
